Measured values drawn from the supplement of paper PMC13380429 for this set.

- System: Vero E6
- test_description: cell viability relative to DMSO; higher = less toxic
- experimental_parameters: 72 h; 10 nM
Entries annotated with measured cell viability

Use these answered entries as a reference point.
1) CS(=O)(=O)c1ccc([C@@H](CC2CCCC2)C(=O)Nc2nccs2)cc1 [Ro-28-1675]    95.2%
2) Cc1nc2ccc(-n3ncc(C(=O)c4cc5ccccc5[nH]4)c3N)cc2[nH]1    96%
3) Cc1sc(N)c(C(=O)c2cccc(C(F)(F)F)c2)c1C    96.9%
4) COC(=O)C1=C(C)NC(C)=C(C(=O)OCCSc2ccccc2)[C@@H]1C [PCA-4248]    99.1%

Exercise: Find the recorded cell viability belonging to C1=C2CCCN[C@H]2[C@@H]2C[C@H]1[C@H]1CCCCN1C2 [aloperine] and report it.
Solution: 100%

Exercise: Requested field: cell viability. Item: N[C@@H](CSCCCO)C(=O)O [fudosteine]
Solution: 92.7%

Exercise: What value of measured cell viability is listed for Fc1ccc(-c2nc(-c3c(F)cccc3F)[nH]c2-c2ccncc2)cc1 [TA-01] ?
Solution: 106%

Exercise: Value lookup for cell viability; key = CNC(=O)c1cc(Oc2ccc(NC(=O)Nc3ccc(Cl)c(C(F)(F)F)c3)cc2)ccn1 [sorafenib]
Solution: 98.9%

Exercise: Look up cell viability: CN1CCN2c3c(cccc31)[C@@H]1CN(CCCC(=O)c3ccc(F)cc3)CC[C@@H]12 [lumateperone]
Solution: 92.7%
